- experimental-protocol: refractive index (Na D-line) (dimensionless)
- experimental-parameters: 293.15 K; 101.33 kPa; Liquid; Standard Abbe refractometry
measurement-type: refractive index

line_notation=CC(C)C(=O)O number=1.3933
line_notation=CCCCCC number=1.3749
line_notation=CCC(=O)O number=1.381
line_notation=CCCCCCCCCC number=1.4105
line_notation=CCCCC(=O)O number=1.4087
line_notation=CCO number=1.3612
line_notation=C1CCCCC1 number=1.4265
